# System: SK-MEL-5 melanoma
# PROTOCOL_SUMMARY: NCI tumour cell line growth inhibition, 48 h
Please provide measured TGI for the entries that follow.
Note: unit µM is implicit; provide only the numeric part.

Q) Check SK-MEL-5 melanoma data and give TGI for CCOC(=O)c1c(NN2CCN(CC(F)(F)F)CC2)oc(/C=C2\C=Nc3ncccc32)c1O .
A) 10.6

Q) Report TGI on SK-MEL-5 melanoma for this entry: CCOc1ccccc1/C=N\N=C(N/N=C/c1ccccc1OCC)N/N=C/c1ccccc1OCC
A) 3.71

Q) For SK-MEL-5 melanoma, give TGI of the listed molecule: O=C1c2cc3c(cc2CC12Cc1ccccc1C2)CCC3
A) 32.2

Q) Supply TGI measured with SK-MEL-5 melanoma for O=C1Nc2cccc(Cl)c2/C1=C\c1cccnc1 .
A) 27.4

Q) State TGI (SK-MEL-5 melanoma) of CCN1/C(=C/C(C)=C/c2sc3ccc4ccccc4c3[n+]2CC)Sc2ccc3ccccc3c21 .
A) 0.352

Q) Give TGI only, for COc1ccccc1NC1Oc2cc3c(cc2C(c2cc(OC)c(OC)c(OC)c2)C1C)OCO3 (configuration not stated) , using SK-MEL-5 melanoma data.
A) 16.8

Q) Fill in TGI for COc1cc(CSc2nc3ccc(Cl)cc3c(=O)n2Cc2ccccc2)cc(OC)c1OC tested with SK-MEL-5 melanoma.
A) 17.1

Q) State the measured TGI (SK-MEL-5 melanoma) of Cn1cnc([N+](=O)[O-])c1S(=O)(=O)Oc1ccc(Cl)cc1
A) 32.3

Q) Return reported TGI for target or system SK-MEL-5 melanoma, item O=C(Nc1ccc(Cl)c(C(F)(F)F)c1)Nc1ccc(-c2cccnc2)cc1N1CCC(CO)CC1 .
A) 3.12

----------
# Tested on: M14 melanoma
# PROTOCOL_SUMMARY: NCI tumour cell line growth inhibition, 48 h
Classification field: label 1 = TGI at or over 30 µM; label 0 = TGI under 30 µM.

Q) Determine whether measured TGI meets or exceeds 30 µM for COc1cccc([C@@H]2C/C(=N\NC(=O)C(=O)N[C@@H](C)c3ccccc3)c3ccccc3N2)c1
A) label 1

Q) Textbook exercise: given the entry CCn1nc(C2CCN(C(=O)CCO)CC2)nc1-c1cnc(N)c(-c2nnc(C(C)(C)C)o2)n1 , state whether its TGI is greater than or equal to 30 µM.
A) label 1

Q) # check: TGI of N#Cc1c(N)nc2c(c1-c1ccc(Cl)cc1)COc1ccc(F)cc1-2 is greater than or equal to 30 µM
A) label 1

Q) Reported TGI reaches at least 30 µM for O=C(C[C@@H]1CCCN2CCCC[C@H]12)N1c2ccccc2Sc2ccc(Cl)cc21 ?
A) label 0

Q) Item CSc1nc(-c2ccccc2)[nH]c(=O)n1 with TGI of 30 µM or above?
A) label 1

Q) Is it the case that Oc1ccc(N=Nc2ccc(Br)cc2)c(O)c1 has TGI reaching or exceeding 30 µM?
A) label 0

Q) Does the compound COc1cccc(C2=NC(C(C)C)CO2)c1OC (centres undefined) have recorded TGI that is 30 µM or more?
A) label 1

Q) Decide: TGI of c1ccc(/C(=N\Nc2nc3ccccc3[nH]2)c2ccccn2)cc1 >= 30 µM?
A) label 0

Q) Is the recorded value of TGI equal to or greater than 30 µM for this compound? CCOC(=O)c1ccc(N2NC(=O)/C(=C/c3ccc([N+](=O)[O-])o3)C2=O)cc1
A) label 1

Q) Could you tell me if the measured TGI of COC(=O)CCc1n(Cc2ccc3ccccc3c2)c2ccccc2[n+]1Cc1ccc2ccccc2c1 reaches 30 µM or more?
A) label 0

Q) Test whether the compound Cc1ccc(S(=O)(=O)C2=Cc3ccccc3C2(O)c2ccccc2)cc1 (centres undefined) records TGI of 30 µM or higher.
A) label 1

Q) Answer whether TGI of Cc1nc2ccccc2c(=O)n1/N=C(\N=Nc1ccccc1)c1ccccc1Cl is greater than or equal to 30 µM.
A) label 1

Q) Exam item: decide whether the reported TGI for O=C(CCN1CCCCC1)Nc1ccc2c(c1)C(=O)c1ccc(NC(=O)CCN3CCCCC3)cc1C2=O is at least 30 µM.
A) label 0

Q) Is it the case that O=C(O)c1cnc2c(ccc3[nH]cccc32)c1=O has TGI reaching or exceeding 30 µM?
A) label 1

Q) Quick check, TGI >= 30 µM? COc1cc2c(/C=C3\C(=O)N(C)c4ccccc43)c[nH]c2cc1C
A) label 1

Q) Tell me whether TGI is at least 30 µM here: CN1CCc2ccccc2C1Cc1ccccc1NC(=O)c1sc2ccccc2c1Cl (centres undefined)
A) label 1

Q) Evaluate O=C(/C=C/c1ccc([N+](=O)[O-])cc1)N1CCN(CCOC(c2ccc(F)cc2)c2ccc(F)cc2)CC1 : TGI at minimum 30 µM?
A) label 1

----------
# Tested on: HCT-116 colon
# PROTOCOL_SUMMARY: NCI tumour cell line growth inhibition, 48 h
MEASUREMENT_NAME: TGI

Q) Supply measured TGI of CCOC(=O)C1CCCc2sc(N)c(C#N)c21 (stereo unspecified) in your reply.
A) > 100 µM

Q) # return recorded TGI for entry O=C(O)c1cnc2c(ccc3[nH]cccc32)c1=O
A) > 100 µM

Q) Read the entry Cn1c(-c2ccccc2)cc(-c2ccc3c(c2)OCO3)c1-c1ccsc1 and write its reported TGI.
A) > 100 µM

Q) Please give measured TGI of the following entry: COc1cc([C@@H]2c3cc4c(cc3[C@@H](NCc3ccccc3F)C3COC(=O)[C@@H]32)OCO4)cc(OC)c1O (stereo partly specified)
A) 21.9 µM

Q) Recall and state the measured TGI for CCC1C(NC(=O)OC)C(=O)N1[C@@H](C)c1ccccc1 (stereo partly specified) .
A) > 100 µM

Q) Give recorded TGI. N#CC1(CCCI)CCCC1
A) > 100 µM

Q) Provide measured TGI value, entry: O=c1c2ccccc2n2c(-c3ccccc3O)nnc2n1-c1ccccc1
A) > 100 µM

Q) Answer with reported TGI of COc1cc(C2c3cc4c(cc3OC(NNC(N)=S)C2C)OCO4)cc(OC)c1OC (stereo unspecified)
A) > 80.7 µM

Q) For COc1ccc(/C=C/c2onc3c(=O)n(C)nc(-c4ccccc4)c23)cc1 , write its TGI.
A) > 100 µM

Q) State its TGI for this molecule: COc1ccc2c(n1)Sc1nc3ccccc3nc1N2
A) > 100 µM

Q) For Cc1cccc(N=Nc2c(C)nn(C(=O)CC(=O)Nc3ccc(Cl)cc3)c2C)c1 , write its TGI.
A) > 100 µM

----------
# Tested on: UO-31 renal
# PROTOCOL_SUMMARY: NCI tumour cell line growth inhibition, 48 h
Could you please report measured TGI for the items listed next?

Q) Given Cn1cc(NC(=O)Nc2cc(C(=O)Nc3cc(C(=O)Nc4ccc5cc(S(=O)(=O)O)cc(S(=O)(=O)O)c5c4)n(C)c3)n(C)c2)cc1C(=O)Nc1cc(C(=O)Nc2ccc3cc(S(=O)(=O)O)cc(S(=O)(=O)O)c3c2)n(C)c1 , report its TGI on UO-31 renal.
A) > 100 µM

Q) Quote TGI with test system UO-31 renal for O=C1c2ccccc2CC12Cc1cc3c(cc1C2)CCC3
A) > 100 µM

Q) Please report the measured TGI for CC1(O)CC2C(CC1SC1CC3C(CC1(C)O)C3(C)C)C2(C)C (stereo not drawn) tested on UO-31 renal.
A) > 100 µM

Q) Under UO-31 renal: report TGI of COc1ccccc1C#C/C=C\C#Cc1ccccc1C#N .
A) 67.2 µM

Q) # assay system UO-31 renal: give TGI of COc1cc2c(c(OC)c1OC)-c1ccc(SC)c(=O)cc1[C@@H](NC(=O)c1cccc([N+](=O)[O-])c1)CC2
A) > 100 µM

Q) Write down measured TGI (UO-31 renal) for this molecule. CCOC(=O)C1=C(C(=O)OCC)SC2(S1)C(C(=O)OCC)=C(C(=O)OCC)Sc1c2ssc1=O
A) 3.25 µM

Q) Give reported TGI for CC[C@]12CN3CCc4c([nH]c5ccccc45)[C@@](C(=O)OC)(c4cc5c(cc4OC)N(C)[C@H]4[C@@](O)(C(=O)OC)[C@H](OC(C)=O)[C@]6(CC)C=CCN7CC[C@]54[C@@H]76)CC(C3)[C@H]1O2 (stereo partly drawn) (UO-31 renal)
A) > 88.5 µM

Q) For UO-31 renal, give the measured TGI of the entry Nc1nc(Sc2ccc([N+](=O)[O-])c3nonc23)c2ncn(C3OC(CO)C(O)C3O)c2n1 (stereo not drawn)
A) 43.6 µM

Q) Report its TGI with UO-31 renal as the test system: O=S(O)O.O=S(O)O.[Co].[NH2-].[NH2-].[NH2-].[NH2-]
A) > 100 µM

Q) Give reported TGI for O=C1Nc2cccc(Cl)c2/C1=C\c1cccnc1 (UO-31 renal)
A) 18.5 µM

Q) System UO-31 renal. Read-out TGI. Item COC(=O)/C=C1\CCC2[C@@H](C(=O)CC3[C@]2(C)CCC[C@@]3(C)C(=O)OC)C1C (stereo partly drawn) . Report value.
A) 44.4 µM

Q) Report value only: TGI, UO-31 renal, O=S(=O)(c1ccccc1)C1CC(c2nc3ccccc3[nH]2)=NO1 (stereo not drawn)
A) > 100 µM

Q) Look up UO-31 renal data: TGI of C[C@]12Cc3conc3C(O)=C1CC[C@@H]1C2CC[C@@]2(C)C1CC[C@@H]2O (stereo partly drawn) , then report it.
A) 53.3 µM

Q) For UO-31 renal, give the measured TGI of the entry COC(=O)CCc1n(Cc2ccc3ccccc3c2)c2ccccc2[n+]1Cc1ccc2ccccc2c1
A) 10.2 µM

Q) Give TGI for this entry on UO-31 renal: NC(=O)N/N=C(\CC1OC(=O)c2ccccc21)c1ccc([N+](=O)[O-])cc1 (stereo not drawn)
A) > 100 µM

Q) Write down measured TGI (UO-31 renal) for this molecule. O=C1CN=C(c2ccc[nH]2)c2cc(Cl)ccc2N1
A) > 100 µM

Q) Given S=C(NCCc1ccccn1)N/N=C(\c1ccccc1)c1ccccn1 , report its TGI on UO-31 renal.
A) 14.1 µM

Q) Report value only: TGI, UO-31 renal, OCC1OC(N2C=C(c3nc4ccccc4s3)C3C=CC=CC32)C(O)C(O)C1O (stereo not drawn)
A) > 50 µM
